Biological target: QscR (Pseudomonas aeruginosa)
Construct: expressed in transfected cells; host or cells: E. coli 5α (DH5α) with pJNQ and pPROBE-PPA1897
Sequence (G3XD77 1-237): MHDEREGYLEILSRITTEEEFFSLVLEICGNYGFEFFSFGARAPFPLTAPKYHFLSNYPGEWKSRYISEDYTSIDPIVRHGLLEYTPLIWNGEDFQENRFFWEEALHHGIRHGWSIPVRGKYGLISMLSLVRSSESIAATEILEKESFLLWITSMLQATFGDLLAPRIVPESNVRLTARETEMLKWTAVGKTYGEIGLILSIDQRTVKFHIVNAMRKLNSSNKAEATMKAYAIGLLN
Assay: cell-based
Design: species or system P. aeruginosa
Conditions: receptor expressed in E. coli (DH5α), arabinose-induced
Entries and their EC50 values follow.
I only need the number, in nM, no unit after it.

Use the examples below as a reference point.
compound: CCCCCCCCCCCC(O)CC(=O)N[C@H]1CCOC1=O (stereo partly drawn)
property: EC50
numeric result: 150
--
compound: CCCCCCCC(=O)CC(=O)N[C@H]1CCOC1=O
property: EC50
numeric result: 260
--
compound: CCCCCCCCCC(O)CC(=O)N[C@H]1CCOC1=O (stereo partly drawn)
property: EC50
numeric result: 110

EC50 reported for this compound CCCCCCCCCCCCCC(=O)N[C@H]1CCOC1=O : 89.6

Per the records, this compound ( CCCCCCCC(=O)N[C@H]1CCOC1=O ) has EC50 equal to 1900

CCCCCCCCCCCCCC(=O)CC(=O)N[C@H]1CCOC1=O has a reported EC50 of 170

Looking up CCCCCCCC(O)CC(=O)N[C@H]1CCOC1=O (stereo partly drawn) , I see its EC50 listed as 29.9

Lab book: EC50 of CCCCCC(O)CC(=O)N[C@H]1CCOC1=O (stereo partly drawn) [3OHC8-HSL, N-3-hydroxyoctanoyl-L-homoserine lactone] noted as 5820

----------
Consider the following molecules and their measured pEC50 readings.
Molecular target: LasR (Pseudomonas aeruginosa)
Construct: expressed in transfected cells; host or cells: E. coli 5α (DH5α) with pJNL and pPROBE-PrsaL
Sequence (P25084 1-239): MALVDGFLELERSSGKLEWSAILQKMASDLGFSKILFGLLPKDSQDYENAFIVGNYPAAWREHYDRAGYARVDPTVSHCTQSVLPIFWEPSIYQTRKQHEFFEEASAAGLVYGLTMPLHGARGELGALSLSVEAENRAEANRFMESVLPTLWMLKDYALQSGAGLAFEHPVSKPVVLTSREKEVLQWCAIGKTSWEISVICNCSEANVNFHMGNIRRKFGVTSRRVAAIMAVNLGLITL
Experiment: cell-based
Design: species or system P. aeruginosa
Conditions: receptor expressed in E. coli (DH5α), arabinose-induced
On this scale, pEC50 is minus log10 of a concentration expressed in M (mol/L).

Worked cases, pEC50 given:
molecule: CCCCCCCCCC(=O)N[C@H]1CCOC1=O
numeric result: 5.06
--
molecule: CCCCCCCCCCCC(=O)N[C@H]1CCOC1=O
numeric result: 6.18
--
molecule: CCCCCCCC(=O)CC(=O)N[C@H]1CCOC1=O
numeric result: 6.68
--
molecule: CCCCCC(=O)CC(=O)N[C@H]1CCOC1=O
numeric result: 4.76

Looking up CCCCCCCCCCCC(O)CC(=O)N[C@H]1CCOC1=O (some centres unmarked) , I see its pEC50 listed as 6.70

// CCCCCCCCCC(O)CC(=O)N[C@H]1CCOC1=O (some centres unmarked) : pEC50 value = 5.91

Quick note, pEC50 for CCCCCCCCCCCC(=O)CC(=O)N[C@H]1CCOC1=O landed at 7.90

// pEC50 lookup, molecule = CCCCCCCCCCCCCC(=O)N[C@H]1CCOC1=O , result: 6.44

Sure, the documented pEC50 for CCCCCCCC(O)CC(=O)N[C@H]1CCOC1=O (some centres unmarked) is 5.10

# pEC50 of CCCCCCCCCCCCCC(=O)CC(=O)N[C@H]1CCOC1=O = 6.89
